measured-on: Nav1.5 (Homo sapiens, UniProt Q14524)
Construct: ChanTest Corp; host or cells: CHO cells (Chinese hamster)
Sequence (Q14524 whole entry): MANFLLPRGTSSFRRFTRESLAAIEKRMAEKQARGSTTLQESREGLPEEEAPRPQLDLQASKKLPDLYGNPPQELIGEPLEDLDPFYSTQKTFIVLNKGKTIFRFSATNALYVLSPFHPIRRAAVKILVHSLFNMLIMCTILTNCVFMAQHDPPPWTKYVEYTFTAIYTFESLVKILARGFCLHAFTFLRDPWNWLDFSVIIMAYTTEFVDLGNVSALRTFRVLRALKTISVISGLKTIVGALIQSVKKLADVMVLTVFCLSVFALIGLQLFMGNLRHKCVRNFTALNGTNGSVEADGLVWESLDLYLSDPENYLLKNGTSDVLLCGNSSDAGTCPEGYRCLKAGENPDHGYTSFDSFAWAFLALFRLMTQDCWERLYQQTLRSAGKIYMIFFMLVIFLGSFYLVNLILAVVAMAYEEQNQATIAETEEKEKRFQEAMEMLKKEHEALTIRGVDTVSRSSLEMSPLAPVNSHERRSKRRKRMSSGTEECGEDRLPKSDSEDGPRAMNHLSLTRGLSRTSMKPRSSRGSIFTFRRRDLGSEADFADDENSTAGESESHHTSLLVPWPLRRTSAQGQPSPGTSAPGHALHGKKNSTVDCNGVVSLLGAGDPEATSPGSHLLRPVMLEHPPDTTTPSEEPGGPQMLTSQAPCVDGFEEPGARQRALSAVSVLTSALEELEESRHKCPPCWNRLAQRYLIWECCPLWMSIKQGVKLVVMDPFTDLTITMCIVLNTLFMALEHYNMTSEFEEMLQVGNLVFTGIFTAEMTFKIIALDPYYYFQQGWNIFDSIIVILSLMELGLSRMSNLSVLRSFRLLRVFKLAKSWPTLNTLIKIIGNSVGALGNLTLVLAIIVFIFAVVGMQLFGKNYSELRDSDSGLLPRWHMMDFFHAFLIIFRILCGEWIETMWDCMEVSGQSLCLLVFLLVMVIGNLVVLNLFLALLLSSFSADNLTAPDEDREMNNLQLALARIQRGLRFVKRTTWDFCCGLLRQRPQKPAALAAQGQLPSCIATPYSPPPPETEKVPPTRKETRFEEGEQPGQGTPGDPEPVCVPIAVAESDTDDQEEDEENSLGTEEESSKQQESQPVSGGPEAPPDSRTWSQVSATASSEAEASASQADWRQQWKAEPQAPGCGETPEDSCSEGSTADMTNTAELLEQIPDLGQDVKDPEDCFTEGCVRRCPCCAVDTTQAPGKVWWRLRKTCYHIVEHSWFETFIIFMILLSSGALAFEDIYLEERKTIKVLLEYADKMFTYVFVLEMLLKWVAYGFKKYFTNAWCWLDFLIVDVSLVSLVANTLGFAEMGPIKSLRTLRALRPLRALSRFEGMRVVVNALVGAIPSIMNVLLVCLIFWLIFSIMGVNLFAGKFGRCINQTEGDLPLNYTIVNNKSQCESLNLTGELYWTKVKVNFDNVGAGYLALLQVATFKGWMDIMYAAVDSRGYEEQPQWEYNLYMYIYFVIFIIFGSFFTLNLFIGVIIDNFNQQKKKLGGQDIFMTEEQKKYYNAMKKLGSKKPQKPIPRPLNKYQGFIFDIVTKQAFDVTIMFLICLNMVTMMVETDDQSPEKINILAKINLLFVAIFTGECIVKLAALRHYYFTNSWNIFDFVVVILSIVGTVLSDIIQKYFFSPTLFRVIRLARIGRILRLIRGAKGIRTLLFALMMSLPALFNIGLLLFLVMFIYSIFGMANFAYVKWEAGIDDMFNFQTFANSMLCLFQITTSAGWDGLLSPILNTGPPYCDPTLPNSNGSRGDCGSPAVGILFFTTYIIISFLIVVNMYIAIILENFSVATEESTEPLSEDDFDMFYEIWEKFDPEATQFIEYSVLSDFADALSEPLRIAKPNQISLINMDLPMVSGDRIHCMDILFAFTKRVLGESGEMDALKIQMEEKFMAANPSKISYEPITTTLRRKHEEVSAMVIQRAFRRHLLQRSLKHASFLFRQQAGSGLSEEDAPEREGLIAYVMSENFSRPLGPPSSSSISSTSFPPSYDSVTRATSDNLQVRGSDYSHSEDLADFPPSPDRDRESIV
method-notes: Patch clamp testing, Nav1.5 ion channel inhibition (SyncroPatch 384PE)
Format: cell-based
particulars: Inhibition of Nav1.5 Ion Channel IC50, TP25B, TP25B = Use-Dependent Block; CHO cells transfected with human ion channel cDNA; 0.3% DMSO
As shown below, each of these molecules has a reported IC50 value.

[
  {
    "molecule": "COc1ccc(N(CCN(C)C)CC(=O)N(C)c2ccc(OC)cc2)cc1 [Compound 2294]",
    "value-relation-sign": ">",
    "IC50 [µM]": 1000
  },
  {
    "molecule": "COc1ccc(N(C)C(=O)CN(CCN(C)C)c2ccccc2C)cc1 [Compound 2295]",
    "value-relation-sign": ">",
    "IC50 [µM]": 1000
  },
  {
    "molecule": "COc1ccc(N(C)C(=O)CN(CCN(C)C)c2ccc(F)c(Cl)c2)cc1 [Compound 2299]",
    "value-relation-sign": "=",
    "IC50 [µM]": 505
  },
  {
    "molecule": "COc1ccc(N(C)C(=O)CN(CCN(C)C)c2cccc(Cl)c2F)cc1 [Compound 2300]",
    "value-relation-sign": "=",
    "IC50 [µM]": 259
  },
  {
    "molecule": "COc1ccc(N(C)C(=O)CN(CCN(C)C)c2cc(Cl)ccc2Cl)cc1 [Compound 2298]",
    "value-relation-sign": "=",
    "IC50 [µM]": 204
  }
]

---

measured-on: Nav1.7 (Homo sapiens)
Construct: ChanTest Corp; host or cells: CHO cells (Chinese hamster)
method-notes: Patch clamp testing, Nav1.7 ion channel inhibition (SyncroPatch 384PE)
Assay type: cell-based
particulars: TP25B = Use-Dependent Block; CHO cells transfected with human ion channel cDNA; 0.3% DMSO; read-out: Inhibition of Nav1.7 Ion Channel IC50, TP25B

[
  {
    "compound": "COc1ccc(N(C)C(=O)CN(CCN(C)C)c2ccccc2)cc1",
    "measured-on": "Nav1.7 (Homo sapiens)",
    "reading-unit": "µM",
    "value-relation-sign": ">",
    "IC50": 1000
  },
  {
    "compound": "COc1ccc(N(C)C(=O)CN(CCN)c2ccccc2)cc1",
    "measured-on": "Nav1.7 (Homo sapiens)",
    "reading-unit": "µM",
    "value-relation-sign": "=",
    "IC50": 55.4
  },
  {
    "compound": "CCN(CC)CC(=O)Nc1c(C)cccc1C [Lidocaine, reference compound]",
    "measured-on": "Nav1.7 (Homo sapiens)",
    "reading-unit": "µM",
    "value-relation-sign": "=",
    "IC50": 113
  },
  {
    "compound": "COc1ccc(N(C)C(=O)CN(CCN(C)C)c2ccc(F)c(Cl)c2)cc1",
    "measured-on": "Nav1.7 (Homo sapiens)",
    "reading-unit": "µM",
    "value-relation-sign": "=",
    "IC50": 334
  },
  {
    "compound": "COc1ccc(N(C)C(=O)CN(CCN(C)C)c2cc(Cl)ccc2Cl)cc1",
    "measured-on": "Nav1.7 (Homo sapiens)",
    "reading-unit": "µM",
    "value-relation-sign": "=",
    "IC50": 220
  },
  {
    "compound": "COc1ccc(N(C)C(=O)CN(CCN(C)C)c2ccccc2C(F)(F)F)cc1",
    "measured-on": "Nav1.7 (Homo sapiens)",
    "reading-unit": "µM",
    "value-relation-sign": "=",
    "IC50": 235
  },
  {
    "compound": "COc1ccc(N(C)C(=O)CN(CCN(C)C)c2cccc(Cl)c2)cc1",
    "measured-on": "Nav1.7 (Homo sapiens)",
    "reading-unit": "µM",
    "value-relation-sign": "=",
    "IC50": 490
  },
  {
    "compound": "COc1ccc(N(C)C(=O)CN(CCN2CCCCC2)c2ccccc2)cc1",
    "measured-on": "Nav1.7 (Homo sapiens)",
    "reading-unit": "µM",
    "value-relation-sign": "=",
    "IC50": 13.1
  },
  {
    "compound": "COc1ccc(N(C)C(=O)CN(CCN(C)C)c2cccc(OC(F)(F)F)c2)cc1",
    "measured-on": "Nav1.7 (Homo sapiens)",
    "reading-unit": "µM",
    "value-relation-sign": "=",
    "IC50": 210
  },
  {
    "compound": "COc1ccc(N(C)C(=O)CN(CCN(C)C)c2ccc(Cl)c(Cl)c2)cc1",
    "measured-on": "Nav1.7 (Homo sapiens)",
    "reading-unit": "µM",
    "value-relation-sign": "=",
    "IC50": 167
  }
]

---

measured-on: Nav1.7 (Homo sapiens, UniProt Q15858)
Construct: ChanTest Corp; host or cells: CHO cells (Chinese hamster)
Sequence (Q15858 whole entry): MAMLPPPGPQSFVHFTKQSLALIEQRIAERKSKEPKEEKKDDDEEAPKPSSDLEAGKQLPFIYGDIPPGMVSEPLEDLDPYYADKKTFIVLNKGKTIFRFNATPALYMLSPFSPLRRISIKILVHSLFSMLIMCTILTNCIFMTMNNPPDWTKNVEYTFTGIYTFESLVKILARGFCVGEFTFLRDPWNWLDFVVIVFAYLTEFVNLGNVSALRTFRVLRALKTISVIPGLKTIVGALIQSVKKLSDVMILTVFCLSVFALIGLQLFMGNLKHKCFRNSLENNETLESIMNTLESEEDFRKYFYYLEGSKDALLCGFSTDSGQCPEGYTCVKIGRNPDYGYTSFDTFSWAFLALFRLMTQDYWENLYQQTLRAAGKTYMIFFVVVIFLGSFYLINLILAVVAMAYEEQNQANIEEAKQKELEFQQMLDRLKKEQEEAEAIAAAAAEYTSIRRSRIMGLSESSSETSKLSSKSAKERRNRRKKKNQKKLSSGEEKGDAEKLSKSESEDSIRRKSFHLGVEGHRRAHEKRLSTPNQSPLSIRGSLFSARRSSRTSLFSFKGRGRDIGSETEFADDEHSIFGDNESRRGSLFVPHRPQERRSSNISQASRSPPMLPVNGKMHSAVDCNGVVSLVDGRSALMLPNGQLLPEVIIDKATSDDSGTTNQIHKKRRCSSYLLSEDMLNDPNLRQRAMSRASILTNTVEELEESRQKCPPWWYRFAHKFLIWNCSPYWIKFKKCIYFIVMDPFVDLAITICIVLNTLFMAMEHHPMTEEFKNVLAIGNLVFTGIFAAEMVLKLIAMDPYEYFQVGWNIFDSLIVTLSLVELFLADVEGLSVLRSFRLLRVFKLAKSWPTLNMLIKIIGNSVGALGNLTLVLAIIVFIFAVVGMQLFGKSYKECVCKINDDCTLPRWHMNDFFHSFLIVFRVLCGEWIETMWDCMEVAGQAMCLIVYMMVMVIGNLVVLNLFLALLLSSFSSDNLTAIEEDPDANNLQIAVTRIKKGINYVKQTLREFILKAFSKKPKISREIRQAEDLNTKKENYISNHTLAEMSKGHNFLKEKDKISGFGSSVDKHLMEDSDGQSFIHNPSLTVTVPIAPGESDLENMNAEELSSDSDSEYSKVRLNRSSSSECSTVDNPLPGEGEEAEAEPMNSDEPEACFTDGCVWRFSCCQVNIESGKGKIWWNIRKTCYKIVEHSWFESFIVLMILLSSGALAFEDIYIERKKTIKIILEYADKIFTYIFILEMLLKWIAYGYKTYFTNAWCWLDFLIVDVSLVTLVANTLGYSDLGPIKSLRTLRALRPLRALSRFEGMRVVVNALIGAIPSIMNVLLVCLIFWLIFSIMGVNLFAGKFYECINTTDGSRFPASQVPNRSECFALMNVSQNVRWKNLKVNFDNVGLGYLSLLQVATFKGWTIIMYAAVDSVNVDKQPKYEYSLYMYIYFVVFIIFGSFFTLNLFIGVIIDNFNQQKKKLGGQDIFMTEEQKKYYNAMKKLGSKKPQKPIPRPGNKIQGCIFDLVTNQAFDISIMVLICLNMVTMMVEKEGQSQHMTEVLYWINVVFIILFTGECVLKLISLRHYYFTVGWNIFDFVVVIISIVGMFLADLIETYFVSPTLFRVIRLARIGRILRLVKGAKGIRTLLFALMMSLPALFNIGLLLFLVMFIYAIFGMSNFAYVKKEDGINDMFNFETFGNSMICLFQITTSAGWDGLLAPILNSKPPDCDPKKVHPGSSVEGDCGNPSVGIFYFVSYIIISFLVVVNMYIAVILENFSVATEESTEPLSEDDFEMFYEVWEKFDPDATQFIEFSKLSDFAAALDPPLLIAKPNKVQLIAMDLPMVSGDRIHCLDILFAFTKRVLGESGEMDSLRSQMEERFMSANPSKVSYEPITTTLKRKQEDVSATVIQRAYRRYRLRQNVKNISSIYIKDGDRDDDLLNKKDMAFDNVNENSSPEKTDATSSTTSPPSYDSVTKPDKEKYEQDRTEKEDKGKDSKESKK
method-notes: Patch clamp testing, Nav1.7 ion channel inhibition (SyncroPatch 384PE)
Format: cell-based
particulars: read-out: Inhibition of Nav1.7 Ion Channel IC50, TP25B; TP25B = Use-Dependent Block; CHO cells transfected with human ion channel cDNA; 0.3% DMSO
As shown below, each of these compounds has a reported IC50 value.

[
  {
    "molecule-smiles": "COc1ccc(N(C)C(=O)CN(CCN(C)C)c2ccccc2OC)cc1",
    "IC50": "> 1000 µM"
  },
  {
    "molecule-smiles": "COc1ccc(N(C)C(=O)CN(CCN(C)C)c2ccccc2C)cc1",
    "IC50": "> 1000 µM"
  }
]

---

measured-on: Nav1.5 (Homo sapiens, UniProt Q14524)
Construct: ChanTest Corp; host or cells: CHO cells (Chinese hamster)
method-notes: Patch clamp testing, Nav1.5 ion channel inhibition (SyncroPatch 384PE)
Assay type: cell-based
particulars: Inhibition of Nav1.5 Ion Channel IC50, TP1A, TP1A = Tonic Block; CHO cells transfected with human ion channel cDNA; 0.3% DMSO
pIC50: −log10 of the molar value.

[
  {
    "molecule-smiles": "COc1ccc(N(C)C(=O)CN(CCN)c2ccccc2)cc1",
    "value-relation-sign": "=",
    "pIC50": 3.91
  },
  {
    "molecule-smiles": "COc1ccc(N(C)C(=O)CN(CCN(C)C)c2ccccc2)cc1",
    "value-relation-sign": "<",
    "pIC50": 3.00
  },
  {
    "molecule-smiles": "COc1ccc(N(C)C(=O)CN(CCN(C)C)c2cccc(OC(F)(F)F)c2)cc1",
    "value-relation-sign": "=",
    "pIC50": 3.59
  },
  {
    "molecule-smiles": "COc1ccc(N(C)C(=O)CN(CCN2CCN(C)CC2)c2ccccc2)cc1",
    "value-relation-sign": "<",
    "pIC50": 3.00
  },
  {
    "molecule-smiles": "COc1ccc(N(C)C(=O)CN(CCN(C)C)c2cc(Cl)ccc2Cl)cc1",
    "value-relation-sign": "=",
    "pIC50": 3.60
  },
  {
    "molecule-smiles": "COc1ccc(N(C)C(=O)CN(CCN(C)C)c2ccc(Cl)c(C(F)(F)F)c2)cc1",
    "value-relation-sign": "=",
    "pIC50": 4.02
  },
  {
    "molecule-smiles": "COc1ccc(N(C)C(=O)CN(CCN(C)C)c2cccc(Cl)c2F)cc1",
    "value-relation-sign": "=",
    "pIC50": 3.49
  },
  {
    "molecule-smiles": "COc1ccc(N(C)C(=O)CN(CCN(C)C)c2cccc(Cl)c2)cc1",
    "value-relation-sign": "=",
    "pIC50": 3.09
  },
  {
    "molecule-smiles": "COc1ccc(N(C)C(=O)CN(CCN2CCCCC2)c2ccccc2)cc1",
    "value-relation-sign": "=",
    "pIC50": 4.78
  }
]

---

measured-on: Nav1.5 (Homo sapiens, UniProt Q14524)
Construct: ChanTest Corp; host or cells: CHO cells (Chinese hamster)
method-notes: Patch clamp testing, Nav1.5 ion channel inhibition (SyncroPatch 384PE)
Format: cell-based
particulars: Inhibition of Nav1.5 Ion Channel IC50, TP2A, TP2A = Inactivated State-Dependent Block; CHO cells transfected with human ion channel cDNA; 0.3% DMSO
Rule for this label: 1 (yes) means IC50 is less than 700 µM; 0 (no) means IC50 is at least 700 µM.

[
  {
    "molecule-smiles": "COc1ccc(N(C)C(=O)CN(CCN(C)C)c2cccc(Cl)c2F)cc1",
    "qualitative-label": "1 (yes)"
  },
  {
    "molecule-smiles": "COc1ccc(N(C)C(=O)CN(CCN2CCN(C)CC2)c2ccccc2)cc1",
    "qualitative-label": "0 (no)"
  },
  {
    "molecule-smiles": "COc1ccc(N(C)C(=O)CN(CCN(C)C)c2cccc(Cl)c2)cc1",
    "qualitative-label": "0 (no)"
  },
  {
    "molecule-smiles": "COc1ccc(N(C)C(=O)CN(CCN(C)C)c2ccc(F)c(Cl)c2)cc1",
    "qualitative-label": "1 (yes)"
  },
  {
    "molecule-smiles": "COc1ccc(N(C)C(=O)CN(CCN(C)C)c2ccccc2C(F)(F)F)cc1",
    "qualitative-label": "1 (yes)"
  },
  {
    "molecule-smiles": "COc1ccc(N(C)C(=O)CN(CCN(C)C)c2ccccc2)cc1",
    "qualitative-label": "0 (no)"
  }
]

Origin of the recorded values: patent US11806323B2
